B1: ACSBG2 (parent)
chain: FAQADALKGTLVSTLKEVKPTVFI

Variants of: B1
Protocol description: protein stability index of a GFP-peptide fusion (GPS, HEK-293T) (PSI 1-6); higher = more stable;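 note: lentivirally expressed fusions sorted by FACS into six bins by GFP to DsRed ratio, PSI derived from sequencing read proportions per bin multiplied by bin number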
Experimental context: c terminus: a fixed tail appended
As shown below, each of these variants has a reported protein stability index value.

Task: Would you kindly share the measured protein stability index for V18G ?
Output: 1.79

Task: Would you kindly share the measured protein stability index for E17A ?
Output: 1.03

Task: Would you kindly share the measured protein stability index for V22E ?
Output: 1.94

Task: Would you kindly share the measured protein stability index for T21S ?
Output: 2.35

Task: Would you kindly share the measured protein stability index for F1G ?
Output: 2.46

***
Task: Would you kindly share the measured protein stability index for K16F ?
Output: 2.41

Task: Would you kindly share the measured protein stability index for V22T ?
Output: 2.77

Task: Would you kindly share the measured protein stability index for A2I ?
Output: 1.22

Task: Would you kindly share the measured protein stability index for A6M ?
Output: 1.9

Task: Would you kindly share the measured protein stability index for F1H ?
Output: 1.98

Task: Would you kindly share the measured protein stability index for D5K ?
Output: 1.69

Task: Would you kindly share the measured protein stability index for F1M ?
Output: 2.14
